Experiment: Novel Modifiers of Survival Motor Neuron (SMN) Protein: Gene Identification via Genome-wide siRNA Screen;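 note: luminescence tracks full-length SMN protein made from the SMN2 reporter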
Details: HEK293T SMN2-luciferase reporter, siRNA knockdown, 72 h; actives lie on both sides
Procedure: Spinal muscular atrophy (SMA) is the most common neuromuscular autosomal recessive disorder and one of the leading genetic causes of infant death. […] Briefly, 1 pmol of each siRNA was spotted to a well of a 384-well plate (Corning, Corning, NY) and 20 microL of serum-free DMEM containing […] of Lipofectamine RNAiMax (Life Technologies, Carlsbad, CA) was then added to each well. […] Raw luminescence reads were normalized to Ambion(R) Silencer(R) Negative Control #2 siRNA, then log10 transformed. […]
Among all 31,000 sequences or so, about 1,400 (4.5%) were called active. This excerpt belongs to a sample that is enriched for actives.
Label Met when median seed-adjusted z-score < 0.1; otherwise Not met.

chain | qualitative.label
CACAACAUCUUGUAAGACUTT against GNG13 | Met
GCAGGGCAGUAAUCCUCAUTT against DLX6 | Met
CGACUCUGACACCACCAUATT against GOSR2 | Met
GGAUGGGUCUCGCAAAAUATT against ZFYVE1 | Met
ACAGCAUUGUCAUUAGACATT against UBR5 | Not met
GGCCUAUUUCCAAACCGAUTT against RICS | Not met
CAGCAUUCUUUAUCUCGUATT against FZD3 | Met
CAUCAUUACUGUUGAGGGATT against CSRP2BP | Met
CGAUGGGUCUGUGCACAAATT against TGM2 | Not met
GAACCUCAGUCAAAUCGAUTT against OXSR1 | Met
GGGCAAUGAUAGAAAGAAUTT against STK35 | Not met
GCAAAGAUAGAAGAAGAUATT against DDI2 | Not met
GGAGAUACCUGGUCUCUUUTT against ADAM21 | Met
GCUGAUCUAUCACAAACCATT against SERPINA2 | Not met
GCCUGAAUGCAGCCCAGUUTT against SP2 | Met
CCUCGACCCUGUUUCUUAUTT against ARL4D | Met
AAAAGAACGAGGAAGUUAUTT against CACNG2 | Met
CCCAAUCAAGUGUUACAAATT against JMJD1C | Met
GAUGAGACUUUGACUAUAATT against FGD6 | Not met
CACUAUGGAGAAACAAUAUTT against ZNF181 | Met
CGGACCCGCUGAGACAUUATT against HOXB6 | Met
GAAUGUUAGUAGACGGGUUTT against IKZF5 | Not met
CGGGUUUCAUCAAAGUGCATT against RASSF5 | Not met
GCUCGUAAGAGUGCAAGUATT against USPL1 | Met
GAACAGUGUUUGUCAGCAUTT against ASAH2 | Not met

----------
Assay: Novel Modifiers of Survival Motor Neuron (SMN) Protein: Gene Identification via Genome-wide siRNA Screen;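 note: luminescence tracks full-length SMN protein made from the SMN2 reporter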
Conditions: HEK293T SMN2-luciferase reporter, siRNA knockdown, 72 h; actives lie on both sides
About 1,400 (4.5%) of roughly 31,000 sequences were called active. This is one part of a sample in which actives are shown more often than they occur.
Label Criterion met when median seed-adjusted z-score < -0.2; otherwise Criterion not met.

chain | qualitative.label
GGUUUUUGCUGGACAAACATT against PPP2R3C | Criterion not met
CAACAUAUCUGCACAGGUATT against FLVCR2 | Criterion met
GCAUUACAGUCUGAAUUGATT against PTPDC1 | Criterion not met
GAGGGACUAUUUCACGAAATT against PARD3B | Criterion not met
GAAGGUUGAUUAUCGUAAATT against BCMO1 | Criterion not met
GUACCUAAGUUGGAGCUGATT against TRPT1 | Criterion met

----------
Test: Novel Modifiers of Survival Motor Neuron (SMN) Protein: Gene Identification via Genome-wide siRNA Screen;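 note: luminescence tracks full-length SMN protein made from the SMN2 reporter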
Details: HEK293T SMN2-luciferase reporter, siRNA knockdown, 72 h; actives lie on both sides
Hit rate of the full screen: of about 31,000 sequences, about 1,400 (4.5%) were called active.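 How the source made its calls: active means median seed-adjusted z-score above 1 or below -1; inactive means the rest.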 Many of the other results were omitted from the sample, so actives are more common in it than they were.
Outcomes: active, inactive

chain | qualitative.label
CGAUGCUUGUCAGUCCCAATT against NOTCH4 | inactive
CCAGGGACCAAGAGAAAGATT against RCE1 | active
CCACGCACAUACUAUCAAATT against HIVEP1 | inactive
ACUCCAUCCUGAACCCUCATT against USP49 | inactive
CCUGGAUUACAUCUACUUATT against EPHB6 | inactive
GUUACUUCCGAAUCCAUGATT against ZNF627 | inactive
CUGAUAAAGUGGGUCAACATT against TNFRSF10B | inactive
CCGAAUCAUUAUGCACCAATT against OCLN | inactive
GGAUGAUUCGGAAGGUGAATT against ZNF467 | inactive
GGAAUAUGCAUAUCAUGGATT against LNPEP | inactive
CCGUUGUUGUAAGAAGAAATT against MICA | inactive
GACUGGUUAUUACGUCUUATT against SYNJ1 | inactive

----------
Experiment: Novel Modifiers of Survival Motor Neuron (SMN) Protein: Gene Identification via Genome-wide siRNA Screen;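 note: luminescence tracks full-length SMN protein made from the SMN2 reporter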
Conditions: HEK293T SMN2-luciferase reporter, siRNA knockdown, 72 h; actives lie on both sides
Among all 31,000 sequences or so, about 1,400 (4.5%) were called active.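 How the source made its calls: active means median seed-adjusted z-score above 1 or below -1; inactive means the rest.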 This excerpt belongs to a sample that is enriched for actives.
Outcomes: active, inactive

chain | qualitative.label
GUUACUCACAUUUUCUUUATT against AKR7A3 | inactive
GGAUCGGGUUUACUCAGAATT against ACTR6 | inactive
GAAUUGCUGAUAAACCUAUTT against SMNDC1 | active
GGUUGAAGAUGGUACUCCUTT against ADAMTS20 | active
CAAGCUGUCUAAGUCCAAATT against NOVA1 | inactive
CAAAGUAUCGGGUCAUCUATT against DMRTA1 | inactive
GGGCUACAAACUGAACAAATT against LOC81691 | inactive
CAGAUGCAGCACUCACUUUTT against MMP17 | inactive
GACCUGCUCUGUAACCUCATT against NAALADL1 | inactive
CCGUGUUCAUUCCUUUUCATT against ZFP41 | inactive
GAAUAAGCCGUGUACUGAUTT against CASD1 | inactive
GAACAUUUCCAAGUCUGUATT against YSK4 | inactive
CCACCCUUCCGAGACAUGATT against TOP3B | active
GCACCAUUACUAUAGAGGATT against PTH2R | inactive
GCAAGAUGAUUUUAUCUCUTT against CDA | inactive
ACAGAAUAAUGUACAAGAATT against POLR2K | active
CCUGCGUCUCUACAACUAUTT against AURKB | inactive
GCAGCUGAGUUCUACAAGATT against RAG1 | active
GGAGGAAUCUCGAAUGCGATT against CNOT1 | active
CUACCUUACUUUAACAUUATT against KCNS3 | inactive
GGAAAGUCCUGUUUGAUCATT against RHBDL3 | inactive
GGAGAACCACAGUUGCUUUTT against IL17RA | active
CAUCAGCUUCCGCAACUUUTT against LRP3 | active
GGGACUGGGAUUUACGUUATT against MTMR11 | inactive
ACGCUGUCCUGGUUCUUCATT against DGAT2L3 | inactive

----------
Assay: Novel Modifiers of Survival Motor Neuron (SMN) Protein: Gene Identification via Genome-wide siRNA Screen;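 note: luminescence tracks full-length SMN protein made from the SMN2 reporter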
Details: HEK293T SMN2-luciferase reporter, siRNA knockdown, 72 h; actives lie on both sides
In all, about 31,000 sequences went through this assay and about 1,400 (4.5%) were called active. Many of the other results were omitted from the sample, so actives are more common in it than they were.
The label depends only on median seed-adjusted z-score: Y if it is at least -0.02, N if it is smaller.

chain | qualitative.label
CCACUUACCCUCAAAGAAATT against SLC4A5 | Y
CGUUUCAGUCGUUUCAAAATT against POLR2D | N
GAGUCGCUUUAGCUCCGAATT against XPNPEP2 | N
GGAAAGAUCUUCAAUCAUATT against ZNF597 | Y
GCUUCGAGGAGGGCAAGAATT against PRSS27 | Y
GAUUACUUCUUGACUAUCATT against OCRL | N
GGAGGUGACCUUCCAGGAATT against RAB17 | Y
GCUCCUCAAAGGAUAUGAATT against CAB39L | Y
GCAGCAAGAAGGUAGCACATT against ZNF598 | N
GGCCUUUCCUUUACUGUCATT against ABCC4 | N
GGGAAUGACUGGAAGACGATT against TTF1 | Y
CAACGGCAACGGAGAGGAUTT against SLC24A6 | N
GCAGAUACAUUGAUCGCAUTT against PRPF8 | N
CCAAUACAGUGGAACCUAUTT against ATXN1 | N
CCCUUCGCGUUGUUGCUCATT against DHRS1 | Y
GAACUUUUGGGACCAAAUATT against NME5 | Y
GUCUGAAUGUCGAAGAGAATT against G3BP1 | N
CCGGGAAAGUAGAAUUACATT against IGF2BP1 | N
GACGUAACAUCAACAGAUATT against SV2B | N
CAUUCACCACAAUAGCUAUTT against GPR1 | Y
CAAUGACUAUGAAUAAGUATT against SLC9A2 | N
CAAACUUCCCGAUAGAGAATT against CTDP1 | N
CAAUGAGUAUGUGACGGAATT against UNC13A | N
CUUUGACAGUGUUCGUGAATT against SGOL2 | Y
GGCAUUACCGUGUAUAACATT against CHST10 | Y
